- assay_method_text: Equilibrium (thermodynamic) solubility, shake-flask method
- Type: physicochemical
- conditions: 25 °C, organic solvent or mixture, thermodynamic from solid; 1-octanol; text values match 298.15 K; read-out: Solubility S in the alcohol (1-octanol)
observation_type: solubility at 2 days (mM)

> print(dat)
                                   compound  scale.unit  numeric.result
1  O=c1c2sc(=S)n(-c3ccc(F)cc3)c2ncn1CCCN1CCN(CC(O)(Cn2cncn2)c2ccc(F)cc2F)CC1 (stereo not drawn) [II]          mM            5.67
2  Cc1ccc(-n2c(=S)sc3c(=O)n(CCCN4CCN(CC(O)(Cn5cncn5)c5ccc(F)cc5F)CC4)cnc32)cc1 (stereo not drawn) [I]          mM            7.54
3  O=c1c2sc(=S)n(-c3ccc(Cl)cc3)c2ncn1CCCN1CCN(CC(O)(Cn2cncn2)c2ccc(F)cc2F)CC1 (stereo not drawn) [III]          mM            12.3
